assay: Cytotoxicity against human HCT116/VM46 cells assessed as reduction in cell viability after 72 hrs by phosphatase assay; assay type: cell-based; details: HCT-116/VM46, 72 h
The reader will find reported pIC50 values listed item by item below.
Would you please state pIC50, meaning minus log10 of the concentration in mol/L, as a bare number?

A selection of reference data follows.
CC[C@]1(NC(=O)c2ccc(OC)c(Br)c2)C[C@H]2CN(CCc3c([nH]c4ccccc34)[C@@](C(=O)OC)(c3cc4c(cc3OC)N(C)[C@H]3[C@@](O)(C(=O)OC)[C@H](OC(C)=O)[C@]5(CC)C=CCN6CC[C@]43[C@@H]65)C2)C1 :: 7.40
CCCCCCCC(=O)N[C@@]1(CC)C[C@H]2CN(CCc3c([nH]c4ccccc34)[C@@](C(=O)OC)(c3cc4c(cc3OC)N(C)[C@H]3[C@@](O)(C(=O)OC)[C@H](OC(C)=O)[C@]5(CC)C=CCN6CC[C@]43[C@@H]65)C2)C1 :: 6.38
CC[C@]1(NC(=O)c2cnc3ccccc3n2)C[C@H]2CN(CCc3c([nH]c4ccccc34)[C@@](C(=O)OC)(c3cc4c(cc3OC)N(C)[C@H]3[C@@](O)(C(=O)OC)[C@H](OC(C)=O)[C@]5(CC)C=CCN6CC[C@]43[C@@H]65)C2)C1 :: 7.22

Inquiry: Form field: reported pIC50 of `CC[C@]1(NC(=O)c2ccccc2)C[C@H]2CN(CCc3c([nH]c4ccccc34)[C@@](C(=O)OC)(c3cc4c(cc3OC)N(C)[C@H]3[C@@](O)(C(=O)OC)[C@H](OC(C)=O)[C@]5(CC)C=CCN6CC[C@]43[C@@H]65)C2)C1`
Reply text: 7.70

Inquiry: Form field: reported pIC50 of `CC[C@]1(NC(=O)c2ccc(Oc3ccccc3)cc2)C[C@H]2CN(CCc3c([nH]c4ccccc34)[C@@](C(=O)OC)(c3cc4c(cc3OC)N(C)[C@H]3[C@@](O)(C(=O)OC)[C@H](OC(C)=O)[C@]5(CC)C=CCN6CC[C@]43[C@@H]65)C2)C1`
Reply text: 7.30

Inquiry: Form field: reported pIC50 of `CC[C@]1(NC(=O)/C=C/c2ccsc2)C[C@H]2CN(CCc3c([nH]c4ccccc34)[C@@](C(=O)OC)(c3cc4c(cc3OC)N(C)[C@H]3[C@@](O)(C(=O)OC)[C@H](OC(C)=O)[C@]5(CC)C=CCN6CC[C@]43[C@@H]65)C2)C1`
Reply text: 7.70

Inquiry: Form field: reported pIC50 of `CC[C@]1(NC(=O)c2ccc(NC(=O)OC(C)(C)C)c(C)c2)C[C@H]2CN(CCc3c([nH]c4ccccc34)[C@@](C(=O)OC)(c3cc4c(cc3OC)N(C)[C@H]3[C@@](O)(C(=O)OC)[C@H](OC(C)=O)[C@]5(CC)C=CCN6CC[C@]43[C@@H]65)C2)C1`
Reply text: 7.52

Inquiry: Form field: reported pIC50 of `CC[C@]1(NC(=O)c2csc3ccccc23)C[C@H]2CN(CCc3c([nH]c4ccccc34)[C@@](C(=O)OC)(c3cc4c(cc3OC)N(C)[C@H]3[C@@](O)(C(=O)OC)[C@H](OC(C)=O)[C@]5(CC)C=CCN6CC[C@]43[C@@H]65)C2)C1`
Reply text: 7.70

Inquiry: Form field: reported pIC50 of `CC[C@]1(NC(=O)c2ccccc2F)C[C@H]2CN(CCc3c([nH]c4ccccc34)[C@@](C(=O)OC)(c3cc4c(cc3OC)N(C)[C@H]3[C@@](O)(C(=O)OC)[C@H](OC(C)=O)[C@]5(CC)C=CCN6CC[C@]43[C@@H]65)C2)C1`
Reply text: 7.12

Inquiry: Form field: reported pIC50 of `CC[C@]1(NC(=O)c2ccc(C#N)cc2)C[C@H]2CN(CCc3c([nH]c4ccccc34)[C@@](C(=O)OC)(c3cc4c(cc3OC)N(C)[C@H]3[C@@](O)(C(=O)OC)[C@H](OC(C)=O)[C@]5(CC)C=CCN6CC[C@]43[C@@H]65)C2)C1`
Reply text: 7.22

Inquiry: Form field: reported pIC50 of `CC[C@]1(NC(=O)C(C)(C)C)C[C@H]2CN(CCc3c([nH]c4ccccc34)[C@@](C(=O)OC)(c3cc4c(cc3OC)N(C)[C@H]3[C@@](O)(C(=O)OC)[C@H](OC(C)=O)[C@]5(CC)C=CCN6CC[C@]43[C@@H]65)C2)C1`
Reply text: 5.39

Inquiry: Form field: reported pIC50 of `CC[C@]1(NC(=O)c2ccc(F)cc2)C[C@H]2CN(CCc3c([nH]c4ccccc34)[C@@](C(=O)OC)(c3cc4c(cc3OC)N(C)[C@H]3[C@@](O)(C(=O)OC)[C@H](OC(C)=O)[C@]5(CC)C=CCN6CC[C@]43[C@@H]65)C2)C1`
Reply text: 7.60

Inquiry: Form field: reported pIC50 of `CC[C@]1(NC(=O)c2ccccc2Cl)C[C@H]2CN(CCc3c([nH]c4ccccc34)[C@@](C(=O)OC)(c3cc4c(cc3OC)N(C)[C@H]3[C@@](O)(C(=O)OC)[C@H](OC(C)=O)[C@]5(CC)C=CCN6CC[C@]43[C@@H]65)C2)C1`
Reply text: 6.41

Inquiry: Form field: reported pIC50 of `CC[C@]1(NC(=O)c2ccc(SC(C)C)cc2)C[C@H]2CN(CCc3c([nH]c4ccccc34)[C@@](C(=O)OC)(c3cc4c(cc3OC)N(C)[C@H]3[C@@](O)(C(=O)OC)[C@H](OC(C)=O)[C@]5(CC)C=CCN6CC[C@]43[C@@H]65)C2)C1`
Reply text: 7.26

Inquiry: Form field: reported pIC50 of `CC[C@]1(NC(=O)c2ccc(OC)cc2F)C[C@H]2CN(CCc3c([nH]c4ccccc34)[C@@](C(=O)OC)(c3cc4c(cc3OC)N(C)[C@H]3[C@@](O)(C(=O)OC)[C@H](OC(C)=O)[C@]5(CC)C=CCN6CC[C@]43[C@@H]65)C2)C1`
Reply text: 7.15

* * *

The reader will find reported IC50 values listed item by item below.
assay: Cytotoxicity against human HCT116/VM46 cells assessed as reduction in cell viability after 72 hrs by phosphatase assay; assay type: cell-based; conditions: HCT-116/VM46, 72 h
Value expressed in nM; do not type the unit.

A selection of reference data follows.
CC[C@]1(NC(=O)c2cccc(F)c2)C[C@H]2CN(CCc3c([nH]c4ccccc34)[C@@](C(=O)OC)(c3cc4c(cc3OC)N(C)[C@H]3[C@@](O)(C(=O)OC)[C@H](OC(C)=O)[C@]5(CC)C=CCN6CC[C@]43[C@@H]65)C2)C1 :: 25
CC[C@]1(NC(=O)c2ccc(OC)c(OC)c2)C[C@H]2CN(CCc3c([nH]c4ccccc34)[C@@](C(=O)OC)(c3cc4c(cc3OC)N(C)[C@H]3[C@@](O)(C(=O)OC)[C@H](OC(C)=O)[C@]5(CC)C=CCN6CC[C@]43[C@@H]65)C2)C1 :: 1.4

Read the next record carefully.
Inquiry: Form field: reported IC50 of `CC[C@]1(NC(=O)c2ccc(OC(C)C)cc2)C[C@H]2CN(CCc3c([nH]c4ccccc34)[C@@](C(=O)OC)(c3cc4c(cc3OC)N(C)[C@H]3[C@@](O)(C(=O)OC)[C@H](OC(C)=O)[C@]5(CC)C=CCN6CC[C@]43[C@@H]65)C2)C1`
Reply text: 6.6

* * *

assay: Cytotoxicity against human HCT116/VM46 cells assessed as reduction in cell viability after 72 hrs by phosphatase assay; type: cell-based; details: HCT-116/VM46, 72 h
Endpoint Name: IC50
// return the numeric value with its unit appended

A selection of reference data follows.
CC[C@]1(NC(=O)c2ccc3ccncc3c2)C[C@H]2CN(CCc3c([nH]c4ccccc34)[C@@](C(=O)OC)(c3cc4c(cc3OC)N(C)[C@H]3[C@@](O)(C(=O)OC)[C@H](OC(C)=O)[C@]5(CC)C=CCN6CC[C@]43[C@@H]65)C2)C1 :: 3.7 nM
CC[C@]1(NC(=O)c2ccc(OC)c(C)c2)C[C@H]2CN(CCc3c([nH]c4ccccc34)[C@@](C(=O)OC)(c3cc4c(cc3OC)N(C)[C@H]3[C@@](O)(C(=O)OC)[C@H](OC(C)=O)[C@]5(CC)C=CCN6CC[C@]43[C@@H]65)C2)C1 :: 5.2 nM
CC[C@]1(NC(=O)c2cc3ccccc3o2)C[C@H]2CN(CCc3c([nH]c4ccccc34)[C@@](C(=O)OC)(c3cc4c(cc3OC)N(C)[C@H]3[C@@](O)(C(=O)OC)[C@H](OC(C)=O)[C@]5(CC)C=CCN6CC[C@]43[C@@H]65)C2)C1 :: 15 nM
CC[C@]1(NC(=O)c2ccc(N(C)C(=O)OC(C)(C)C)cc2)C[C@H]2CN(CCc3c([nH]c4ccccc34)[C@@](C(=O)OC)(c3cc4c(cc3OC)N(C)[C@H]3[C@@](O)(C(=O)OC)[C@H](OC(C)=O)[C@]5(CC)C=CCN6CC[C@]43[C@@H]65)C2)C1 :: 35 nM

Inquiry: Form field: reported IC50 of `CC[C@]1(NC(=O)c2ccc(C)cc2)C[C@H]2CN(CCc3c([nH]c4ccccc34)[C@@](C(=O)OC)(c3cc4c(cc3OC)N(C)[C@H]3[C@@](O)(C(=O)OC)[C@H](OC(C)=O)[C@]5(CC)C=CCN6CC[C@]43[C@@H]65)C2)C1`
Reply text: 4.5 nM

Cited source: ChEMBL document CHEMBL4017512
